The compounds listed here are annotated with their growth inhibition.
# assay.procedure: NCI Yeast Anticancer Drug Screen. Data for the rad50 strain (AID 155);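 further: 0% = growth of vehicle-only cultures of the same strain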
# conditions.used: S. cerevisiae rad50 strain growth inhibition; at 50.0 µM; active compounds read high
This is part of a sample that, as a whole, favours compounds with a hit. Of some 79,000 tested, about 15% had one in any assay. Activity calls are given as the source filed them. No stated cut-off is given here; in the data, active means growth inhibition above about 70%; inactive means the rest.

compound	growth inhibition
O=C(CC(=O)N1CCOCC1)N1CCOCC1	4.5% (inactive)
NC(=O)NC(=O)c1ccccc1	-10.4% (inactive)
O=c1c2[nH]cnc2ncn1Cc1ccccc1	0.95% (inactive)
O=C(Nc1ccccc1Cl)OCCOc1ccccc1	-3.7% (inactive)
O=C1[C@H]2ON(c3ccccc3)C(c3ccc(Cl)cc3)[C@H]2C(=O)N1c1ccc(Cc2ccc(N3C(=O)[C@@H]4ON(c5ccccc5)C(c5ccc(Cl)cc5)[C@@H]4C3=O)cc2)cc1 (stereo partly specified)	1.75% (inactive)
Nc1nc(O)cc(=O)[nH]1	3.35% (inactive)
CC12C(=O)OC(=O)C1C1C=CC2C1 (stereo unspecified)	20.2% (inactive)
CC(C)=C1C=C(C(C)(C)C)C(=O)C(C(C)(C)C)=C1	29.9% (inactive)
Cc1cc(C)nc(N(C)CCN2CCCCC2)c1	-6.5% (inactive)
O=C(Cl)C1C2C=CC(C2)C1C(=O)Cl (stereo unspecified)	3.1% (inactive)
CC(C)(C)C1=CC(=O)OC1(Cl)C(C)(C)C (stereo unspecified)	-0.65% (inactive)

---

# assay.procedure: NCI Yeast Anticancer Drug Screen. Data for the bub3 strain (AID 167)
# conditions.used: S. cerevisiae bub3 mutant strain, at 50.0 µM, active compounds read high
About 79,000 compounds went through this panel and 15% of them were active in at least one assay; those are over-represented in the sample as a whole.
Measured growth inhibition by item

molecule	unit.symbol	growth inhibition
CCOC(=O)CC(C)C(C(=O)OCC)C(=O)OCC (centres undefined)	%	23.6
NC1=NN(S(=O)(=O)c2ccc(Cl)cc2)CC1	%	-3.3
COc1cccc(OC)c1/C=C1\N=C(c2ccccc2)OC1=O	%	5.55
NCC(c1ccccc1)C1CCCCC1 (centres undefined)	%	-3.9
CCOC(=O)Cn1c(=O)c2nc(SC)sc2n(-c2ccccc2)c1=O	%	-1.45
C=C(CC[C@@H](C)[C@H]1CC[C@@]2(C)C3=C(CC[C@]12C)[C@@]1(C)CC[C@H](O)[C@@H](C)C1CC3)C(C)C (some centres undefined)	%	14.6
CCCCCCCCCCCCCCCCCC(N)=O	%	-2.5
Cc1cc2c(=O)c(C)c[nH]c2cc1Cl	%	-10.6
C=C1CC[C@H]2C(C)=CC[C@H]3C(=C)C(=O)O[C@@H]3[C@@H]12	%	-15.4
O=C(Nc1ccc(Cl)cc1[N+](=O)[O-])Oc1ccc(C(=O)OCc2ccccc2)cc1	%	84.2
C=C(CCCC(C)OC(C)OCC)[Si](C)(C)C (centres undefined)	%	-23.6
O=C(OC1CC2CCC23CCC13)c1ccccc1 (centres undefined)	%	-37.5
CC(OC(=O)Nc1ccccc1)c1ccccc1 (centres undefined)	%	9.2
O=S1OC(c2ccccc2)(c2ccccc2)C(c2ccccc2)(c2ccccc2)O1	%	-13.2
CCC(=O)c1ccc(O)c(C)c1	%	37.7
CC1CCC(=O)NCCCCC(=O)N1 (centres undefined)	%	3.45
COC(=O)C1CC=CCCC1=O (centres undefined)	%	43.7
CCOC(=O)C1=C(O)CSC1=Nc1ccccc1	%	-1.7
COc1ccccc1N=Nc1c(O)n(-c2ccccc2OC)c(=S)n(-c2ccc(I)cc2)c1=O	%	95.2

# credit: PubChem BioAssay (NCI)
